- Tested on: Rattus norvegicus
- METHOD: Daily water consumption was determined in rat after oral administration of 500 mg/kg
- Type: functional

SMILES REPR: CCCCOc1cc(O)c2c(=O)cc(-c3ccccc3)oc2c1
Water consumption (mL): 197.16
//
SMILES REPR: CCCCCCCCOc1cc(O)c2c(=O)cc(-c3ccccc3)oc2c1
Water consumption (mL): 205.91
//
SMILES REPR: Cc1ccc(C(=O)Oc2cc(O)c3c(=O)cc(-c4ccccc4)oc3c2)cc1
Water consumption (mL): 216.83
//
SMILES REPR: CCCOc1cc(OCCC)c2c(=O)cc(-c3ccccc3)oc2c1
Water consumption (mL): 218.5
